# SYSTEM_NAME: GCPII (Homo sapiens, UniProt Q04609)
# Sequence (Q04609 whole entry): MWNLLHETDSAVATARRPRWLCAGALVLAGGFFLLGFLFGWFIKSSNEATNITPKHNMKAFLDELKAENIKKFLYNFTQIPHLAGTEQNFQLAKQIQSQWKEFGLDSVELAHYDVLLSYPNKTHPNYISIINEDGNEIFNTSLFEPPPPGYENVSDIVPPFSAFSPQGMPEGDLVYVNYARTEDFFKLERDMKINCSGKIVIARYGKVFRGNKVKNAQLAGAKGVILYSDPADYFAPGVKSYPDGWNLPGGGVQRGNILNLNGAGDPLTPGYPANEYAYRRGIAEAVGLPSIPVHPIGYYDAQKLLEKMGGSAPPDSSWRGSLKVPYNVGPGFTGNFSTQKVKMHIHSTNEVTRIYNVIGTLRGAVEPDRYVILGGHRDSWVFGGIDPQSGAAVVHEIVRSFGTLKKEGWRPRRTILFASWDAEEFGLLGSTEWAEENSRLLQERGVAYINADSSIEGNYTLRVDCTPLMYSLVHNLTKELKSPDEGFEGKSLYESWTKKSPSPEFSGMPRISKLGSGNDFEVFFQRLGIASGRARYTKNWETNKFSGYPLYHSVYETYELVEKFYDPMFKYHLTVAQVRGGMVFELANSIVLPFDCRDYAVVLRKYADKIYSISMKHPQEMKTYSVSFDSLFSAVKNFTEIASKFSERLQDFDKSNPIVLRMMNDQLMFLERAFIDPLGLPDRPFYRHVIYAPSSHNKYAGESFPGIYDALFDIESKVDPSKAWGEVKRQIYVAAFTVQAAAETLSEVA
# PROCEDURE_SUMMARY: dual-stream LC/MS/MS GCPII substrate cleavage (inhibition) assay
# Assay type: biochemical
# Parameters: purchased Sino Biological
# PROTOCOL_CONDITIONS: maximum response at 100uM, dose response; in % (unit assumed)
READOUT_LABEL: Max resp (100uM)

O=S(=O)(O)c1ccc2c(/N=N/c3ccc(S(=O)(=O)O)c4ccccc34)c(O)c(S(=O)(=O)O)cc2c1 ... −101.68
O=C(O)CCC(CCCS)C(=O)O (stereo not shown) ... −96.75
NC(=O)c1cc[n+](CC2=C(C(=O)O)N3C(=O)[C@@H](NC(=O)[C@@H](c4ccccc4)S(=O)(=O)[O-])[C@H]3SC2)cc1 ... −98.19
O=C(O)CCC(CP(=O)(O)O)C(=O)O (stereo not shown) ... −98.19

---

# SYSTEM_NAME: GCPII (Homo sapiens, UniProt Q04609)
# PROCEDURE_SUMMARY: dual-stream LC/MS/MS GCPII substrate cleavage (inhibition) assay
# Format: biochemical
# Design: purchased Sino Biological
# PROTOCOL_CONDITIONS: primary high-throughput screen; in % (unit assumed)
READOUT_LABEL: HTS max resp

O=C(O)CCC(CP(=O)(O)O)C(=O)O (stereo not shown) ... −100.00
O=C(O)CCC(CCCS)C(=O)O (stereo not shown) ... −100.00
NC(=O)c1cc[n+](CC2=C(C(=O)O)N3C(=O)[C@@H](NC(=O)[C@@H](c4ccccc4)S(=O)(=O)[O-])[C@H]3SC2)cc1 ... −92.18
O=S(=O)(O)c1ccc2c(/N=N/c3ccc(S(=O)(=O)O)c4ccccc34)c(O)c(S(=O)(=O)O)cc2c1 ... −101.93

---

# SYSTEM_NAME: UniProt:Q04609
pIC50: −log10 of the molar value.
READOUT_LABEL: pIC50

Guide cases for pIC50, answers given:
CO[C@@]1(NC(=O)C2SC(=C(C(N)=O)C(=O)O)S2)C(=O)N2C(C(=O)O)=C(CSc3nnnn3C)CS[C@@H]21 (stereo partly shown) ... 5.70
O=C1OC(c2ccc(O)c(S(=O)(=O)O)c2)(c2ccc(O)c(S(=O)(=O)O)c2)c2c(Br)c(Br)c(Br)c(Br)c21 ... 6.64
NC(=O)c1cc[n+](CC2=C(C(=O)O)N3C(=O)[C@@H](NC(=O)[C@@H](c4ccccc4)S(=O)(=O)[O-])[C@H]3SC2)cc1 ... 5.70

(a) O=C(O)C1=C(CSc2nnnn2CS(=O)(=O)O)CS[C@@H]2[C@H](NC(=O)[C@H](O)c3ccccc3)C(=O)N12 [Cefonicid sodium]
(b) NCc1ccccc1CC(=O)N[C@@H]1C(=O)N2C(C(=O)O)=C(CSc3nnnn3CC(=O)O)CS[C@H]12 [Ceforanide]
(c) CC1(C)C(/C=C/C=C/C=C/C=C2\N(CCCCS(=O)(=O)O)c3ccc4ccccc4c3C2(C)C)=[N+](CCCCS(=O)(=O)[O-])c2ccc3ccccc3c21
(d) Cc1cc(-c2ccc(/N=N/c3c(S(=O)(=O)O)cc4cc(S(=O)(=O)O)cc(N)c4c3O)c(C)c2)ccc1/N=N/c1c(S(=O)(=O)O)cc2cc(S(=O)(=O)O)cc(N)c2c1O
Exercise: Put the entries in order of pIC50, starting with the largest number. Answer format: the labels, in the requested order.
Solution: d, c, a, b

---

# SYSTEM_NAME: GCPII (Homo sapiens)
# PROCEDURE_SUMMARY: dual-stream LC/MS/MS GCPII substrate cleavage (inhibition) assay
# Assay type: biochemical
# Design: purchased Sino Biological
# PROTOCOL_CONDITIONS: follow up screening; triplicate IC50 values ± standard deviation; read-out: IC50 (mass spec assay)
pIC50: −log10 of the molar value.
READOUT_LABEL: pIC50

O=C(O)C1=C(CSc2nnnn2CS(=O)(=O)O)CS[C@@H]2[C@H](NC(=O)[C@H](O)c3ccccc3)C(=O)N12 [Cefonicid sodium] ... 4.49
CC1(C)C(/C=C/C=C/C=C/C=C2\N(CCCCS(=O)(=O)O)c3ccc4ccccc4c3C2(C)C)=[N+](CCCCS(=O)(=O)[O-])c2ccc3ccccc3c21 [Indocyanine green] ... 4.96
O=C1OC(c2ccc(O)c(S(=O)(=O)O)c2)(c2ccc(O)c(S(=O)(=O)O)c2)c2c(Br)c(Br)c(Br)c(Br)c21 [Sulfobromophthalein] ... 6.40
NCc1ccccc1CC(=O)N[C@@H]1C(=O)N2C(C(=O)O)=C(CSc3nnnn3CC(=O)O)CS[C@H]12 [Ceforanide] ... 4.54

(1) CO[C@@]1(NC(=O)C2SC(=C(C(N)=O)C(=O)O)S2)C(=O)N2C(C(=O)O)=C(CSc3nnnn3C)CS[C@@H]21 (stereo partly drawn) [Cefotetan]
(2) NC(=O)c1cc[n+](CC2=C(C(=O)O)N3C(=O)[C@@H](NC(=O)[C@@H](c4ccccc4)S(=O)(=O)[O-])[C@H]3SC2)cc1 [Cefsulodin]
Exercise: Select one: 1 or 2 . Criterion: greater recorded pIC50. Record your answer as the label of the chosen record.
Solution: 2
